The values you see were collected from patent US20090202660A1.

# Test system: M2-10B4 marrow stromal cells
# METHOD DESCRIPTION: Matrix mineralization (45Ca incorporation assay, von Kossa staining)
# Format: cell-based, mouse
# CONDITION PARAMETERS: M2 cells in osteogenic medium, 10-14 days

>  <MOLECULE>
CC(C)CC[C@@H](O)[C@@H](C)[C@H]1CC[C@H]2[C@@H]3CC=C4C[C@@H](O)CC[C@]4(C)[C@H]3CC[C@]12C [22R-hydroxycholesterol]

>  <mineralization>
unable to induce

$$$$
>  <MOLECULE>
CC(C)CCC[C@](C)(O)[C@H]1CC[C@H]2[C@@H]3CC=C4C[C@@H](O)CC[C@]4(C)[C@H]3CC[C@@]21C [20S-hydroxycholesterol]

>  <mineralization>
unable to induce

$$$$
>  <MOLECULE>
CC(C)CC[C@H](O)[C@@H](C)[C@H]1CC[C@H]2[C@@H]3CC=C4C[C@@H](O)CC[C@]4(C)[C@H]3CC[C@]12C [22S-hydroxycholesterol]

>  <mineralization>
unable to induce

$$$$
